Tested on: Plasmodium falciparum Sir2 (PF13_0152, Sir2A)
MEASUREMENT_PROTOCOL: pfSir2 binders on small-molecule microarrays, primary screen, biochemical, small-molecule microarray, 635 nm fluorescence (AID 1098);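 also: score merges spot fluorescence intensity with its signal-to-noise ratio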
TEST_CONDITIONS: small-molecule microarray binding, fluorescence 635 nm; higher = more signal
# composite z-score values compiled below

COc1ccc([Si](C)(C)[C@H]2[C@H](CCO)O[C@@]3(C(=O)N(Cc4ccccc4)c4ccc(N5C(=O)c6ccccc6Oc6ccccc65)cc43)[C@@H]2C)cc1: 0.365

Now consider a different compound.
-- ask Recorded composite z-score for COCCOC(=O)N1C(=O)[C@@]2(c3cc(C#CCNC(N)=O)ccc31)[C@H](c1ccc(O)cc1)N1[C@H](c3ccccc3)[C@H](c3ccccc3)OC(=O)[C@H]1[C@@H]2C(=O)N1CCN(c2ncccn2)CC1 , please?
-- reply 1.55

###

MEASUREMENT_PROTOCOL: small-molecule binders of probe aLefty1, primary screen, biochemical, small-molecule microarray, 635/667 nm fluorescence (AID 1153);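 also: score merges spot fluorescence with signal-to-noise ratio from the scanned slide images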
TEST_CONDITIONS: higher = more signal
# composite z-score values compiled below
Answer with a bare number; do not write a unit.

As a guide, the following entries are already answered.
CC(C)CNC(=O)[C@@H]1c2ccccc2C(=O)N(C2CCCCC2)[C@H]1c1ccc(CO)cc1: 0.259
C[C@]1(C(=O)NCC(F)(F)F)c2ccccc2C(=O)N(Cc2ccccc2)[C@H]1c1ccc(CO)cc1: 0.382
C=CCNC(=O)[C@H]1[C@@H]2C(=O)O[C@@H](c3ccccc3)[C@@H](c3ccccc3)N2[C@@H](c2ccc(OCCO)cc2)[C@]12C(=O)Nc1ccc(C#CCNC(N)=O)cc12: 0.0809
CC=CC(O)C1C=CC2C(=O)NC(=O)C2N1Nc1ccccn1 (stereo not given): -0.0061
Nc1cc(Br)ccc1C(=O)O: 0.139
CCCNC(=O)[C@@]1(Sc2ccc(C)cc2)CC(=O)N(C(C)C)[C@@H]1c1ccc(CO)cc1I: -0.0046
O=C1C2C=CC(C(O)c3ccc4c(c3)OCO4)N(Nc3ccccc3)C2C(=O)N1c1ccccc1 (stereo not given): 0.065
O=C1OCCC/C=C\[C@H]2OC34C=CCN(c5ccc6ccccc6c5)C(=O)[C@H]3N(CCCO)C(=O)[C@@H]4C12 (stereo not given in full): -0.366
O=C1OCC=C[C@H]2OC34C=CCN(c5ccc6ccccc6c5)C(=O)[C@H]3N(CCCCCO)C(=O)[C@@H]4[C@@H]12 (stereo not given in full): 0.407
COCCOC(=O)N1C(=O)[C@@]2(c3cc(C#CCCO)ccc31)[C@H](C(=O)N1CCCCCCC1)[C@H]1C(=O)O[C@H](c3ccccc3)[C@H](c3ccccc3)N1[C@@H]2c1ccccc1OCCO: 2.52

-- ask Recorded composite z-score for Cc1ccc(S[C@]2(C(=O)NCc3ccccc3)CC(=O)N(Cc3cc(C(F)(F)F)cc(C(F)(F)F)c3)[C@@H]2c2ccc(CO)cc2I)cc1 , please?
-- reply 0.0903

-- ask Recorded composite z-score for COCCOC(=O)N1C(=O)[C@@]2(c3cc(C#CCC(C(=O)OC)C(=O)OC)ccc31)[C@H](C(=O)NC[C@H](O)c1ccccc1)[C@H]1C(=O)O[C@H](c3ccccc3)[C@H](c3ccccc3)N1[C@@H]2c1ccc(OCCO)cc1 , please?
-- reply -0.118

-- ask Recorded composite z-score for COCCCNC(=O)[C@@]1(Sc2ccc(C)cc2)CC(=O)N(C(C)C)[C@@H]1c1ccc(CO)cc1I , please?
-- reply 0.0445

-- ask Recorded composite z-score for COCCOC(=O)N1C(=O)[C@@]2(c3cc(C#CCCO)ccc31)[C@H](C(N)=O)[C@H]1C(=O)O[C@H](c3ccccc3)[C@H](c3ccccc3)N1[C@@H]2c1ccc(OCCO)cc1 , please?
-- reply 0.157

-- ask Recorded composite z-score for CCOC(=O)C1=CC[C@@H](c2ccccc2)N(S(=O)(=O)c2ccc(C)cc2)[C@H]1c1cccc(OC)c1 , please?
-- reply 0.535

###

MEASUREMENT_PROTOCOL: small-molecule binders of probe aInhba, primary screen, biochemical, small-molecule microarray, 635/667 nm fluorescence (AID 1148);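 also: score merges 667nm spot fluorescence with signal-to-noise for antibody binding to printed compounds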
TEST_CONDITIONS: higher = more signal
Would you mind sorting the entries by composite z-score according to these classes? bottom end = under 0.04, midrange = from 0.04 up to 0.3, top end = 0.3 and over

Consider the following illustrative entries.
COCCOC(=O)N1C(=O)[C@@]2(c3cc(C#CCCO)ccc31)[C@H](c1ccccc1OCCO)N1[C@H](c3ccccc3)[C@H](c3ccccc3)OC(=O)[C@H]1[C@@H]2C(=O)N1CCCCCCC1: top end
CC(C)[C@H]1NC(=O)[C@@]23C(=O)N[C@@H](Cc4ccccc4)C2[C@H](C)[C@@]2(C)O[C@H]2C3/C=C/C/C=C\CNC(=O)[C@H](Cc2ccccc2)NC1=O (stereo not given in full): midrange

-- ask Would you mind sorting CN1C(=O)[C@@]2(Cc3ccccc3)N=C(c3ccc(OCCCO)cc3)O[C@H]2c2ccccc21 into the appropriate category?
-- reply top end

-- ask Would you mind sorting COc1ccc(C#Cc2ccc3c(c2)[C@]2(C(=O)N3)[C@H](C(=O)N3CCCCCCC3)[C@H]3C(=O)O[C@H](c4ccccc4)[C@H](c4ccccc4)N3[C@@H]2c2ccc(O)cc2)cc1 into the appropriate category?
-- reply top end

-- ask Would you mind sorting COc1ccc([Si](C)(C)[C@@H]2[C@@H](CC(=O)N3Cc4ccccc4C[C@H]3CO)O[C@]3(C(=O)N(Cc4ccc(N5CCC5=O)cc4)c4ccccc43)[C@H]2C)cc1 into the appropriate category?
-- reply bottom end

-- ask Would you mind sorting C=CCC(OC(C)=O)[C@@H]1[C@@H](N(Cc2cccc3ccccc23)C(=O)c2cccc3ccccc23)c2cc(OCCCO)ccc2N1C(=O)c1ccc2ccccc2c1 (stereo not given in full) into the appropriate category?
-- reply bottom end

-- ask Would you mind sorting CCCNC(=O)[C@@]1(C)c2ccccc2C(=O)N(Cc2ccccc2)[C@H]1c1ccc(CO)cc1 into the appropriate category?
-- reply midrange

-- ask Would you mind sorting CC(C)OC(=O)CC(=O)CC(O)c1ccc([N+](=O)[O-])cc1 (stereo not given) into the appropriate category?
-- reply bottom end

-- ask Would you mind sorting CN(C)CCCNC(=O)[C@@H]1c2ccccc2C(=O)N(C2CCCCC2)[C@H]1c1ccc(CO)cc1 into the appropriate category?
-- reply midrange

-- ask Would you mind sorting COc1ccc(C(O)C2C=CC3C(=O)N(c4ccccc4)C(=O)C3N2Nc2ccccc2)cc1 (stereo not given) into the appropriate category?
-- reply midrange

-- ask Would you mind sorting O=C1c2ccccc2[C@](Cc2ccccc2I)(C(=O)NC2CC2)[C@H](c2ccc(CO)cc2)N1Cc1ccccc1C(F)(F)F into the appropriate category?
-- reply top end

-- ask Would you mind sorting CCCCC(=C=CC[C@H](O)c1ccc(OCCO)cc1)C[C@H](O)c1cc(Cl)cc(Cl)c1O into the appropriate category?
-- reply bottom end

-- ask Would you mind sorting O=C(O)[C@H]1C[C@H]2C(=O)N[C@@H](Cc3ccccc3)C(=O)N2[C@H]1c1cccc(OCCO)c1 into the appropriate category?
-- reply midrange

###

MEASUREMENT_PROTOCOL: fission yeast growth modulation, primary screen, strain 972, OD600, 24 h, no modulator (AID 1090);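 also: basal condition with compound alone and no growth modifier present; test concentration not given here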
TEST_CONDITIONS: S. pombe 972 growth, called active from +8 up or from −8 down
Active and inactive are the calls of the source.
Assign a class; possible classes are true = active, false = inactive

Consider the following illustrative entries.
Cc1ccc(C(C)CC(O)C2C=CC3C(=O)N(c4ccccc4)C(=O)C3N2Nc2ccc(C#N)cc2)o1 (stereo not given): true
[N-]=[N+]=Nc1ccccc1C[C@@]1(C(=O)O)N=C(c2ccc(OCCCO)cc2)O[C@@H]1c1ccccc1N=[N+]=[N-]: false
CC(C)OC(=O)CC(=O)CC(O)c1ccc([N+](=O)[O-])cc1 (stereo not given): false
CCCCC(=C=CC[C@H](O)c1ccc(OCCO)cc1)C[C@H](O)COCc1ccccc1: false
C=C(/C(=C/C[C@@H](OC(=O)c1ccncc1)c1cccc(OCCO)c1)c1cnc2ccccc2c1)C(C)C: false

-- ask Per the records of this test, what outcome belongs to COCCCNC(=O)[C@@]1(Sc2ccc(C)cc2)CC(=O)N(Cc2ccccc2Cl)[C@@H]1c1ccc(CO)cc1I ?
-- reply false

-- ask Per the records of this test, what outcome belongs to O=C(NCC(O)CO)[C@@]1(CCS(=O)(=O)c2ccccc2)COC(c2ccc(OCCCO)cc2)=N1 (stereo not given in full) ?
-- reply false

-- ask Per the records of this test, what outcome belongs to COc1ccc(NC(=O)O[C@H]2[C@@H]3OC(=O)[C@H](Cc4cccc(Br)c4)C/C=C/C[C@@H](Cc4cccc(Br)c4)C(=O)O[C@H]3[C@@H](OC)O[C@@H]2CO)cc1 ?
-- reply false

-- ask Per the records of this test, what outcome belongs to COc1ccc([Si](C)(C)[C@H]2[C@H](CCO)O[C@@]3(C(=O)N(Cc4ccc(N5C(=O)c6ccccc6Oc6ccccc65)cc4)c4ccccc43)[C@@H]2C)cc1 ?
-- reply false

-- ask Per the records of this test, what outcome belongs to NC(=O)[C@H]1[C@@H]2C(=O)O[C@@H](c3ccccc3)[C@@H](c3ccccc3)N2[C@@H](c2ccc(O)cc2)[C@]12C(=O)Nc1ccc(C#CC3=CCCCC3)cc12 ?
-- reply false

-- ask Per the records of this test, what outcome belongs to CN1C(=O)C2C(C1=O)C1C=C(CCCO)C2C(C2CC2)N1Cc1cc2c(cc1Br)OCO2 (stereo not given) ?
-- reply false

-- ask Per the records of this test, what outcome belongs to COc1ccc(C(O)C2C=CC3C(=O)N(c4ccccc4)C(=O)C3N2Nc2ccc(C(C)C)cc2)c2ccccc12 (stereo not given) ?
-- reply false

-- ask Per the records of this test, what outcome belongs to O=C(NCCN1CCOCC1)[C@@H]1c2ccccc2C(=O)N(Cc2ccccc2)[C@H]1c1ccc(CO)cc1 ?
-- reply false

-- ask Per the records of this test, what outcome belongs to COCCOC(=O)N1C(=O)[C@@]2(c3cc(C#Cc4ccc(OC)cc4)ccc31)[C@H](C(=O)NC[C@H](O)c1ccccc1)[C@H]1C(=O)O[C@H](c3ccccc3)[C@H](c3ccccc3)N1[C@@H]2c1ccc(OCCO)cc1 ?
-- reply false

-- ask Per the records of this test, what outcome belongs to C=C[C@H](C)[C@H](OC(=O)Nc1ccc(OC)cc1)c1ccc(OCCO)cc1 ?
-- reply false
